- measured on: T1, 4H1348-bN
- T1 chain: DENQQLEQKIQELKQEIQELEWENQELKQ
- method: two-hybrid library CCNG1;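 also: natural log of median RNA to DNA barcode read ratio; higher means stronger binding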
observed property: interaction score
Give the figure only, with no unit attached.

In the examples that follow, each entry is paired with its recorded interaction score.
1. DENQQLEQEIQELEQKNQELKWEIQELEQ [4H1081-bN] :: -1.49
2. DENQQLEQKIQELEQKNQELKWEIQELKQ [4H1338-bN] :: -1.29
3. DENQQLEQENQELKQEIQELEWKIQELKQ [4H1222-bN] :: -2.2

Here's the next entry for you.
Exercise: Determine from records and report interaction score for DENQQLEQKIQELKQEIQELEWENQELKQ [4H1348-bN]
Key: -1.55
